experiment: Pharmacokinetics after single intraarticular injection in beagle dogs (plasma and synovial fluid); type: in vivo; conditions: both sexes, dog, synovial fluid, single intraarticular injection 3 mg/kg, mean
measurementType: Cmax

Request: Quick one: Cmax for `CO[C@H]1/C=C/O[C@@]2(C)Oc3c(C)c(O)c4c(O)c(c(/C=N/N5CCC(N(C)C6([C@@H]7CCN(c8c(F)cn9c(=O)c(C(=O)O)cc(C%10CC%10)c9c8C)C7)CC6)CC5)c(O)c4c3C2=O)NC(=O)/C(C)=C\C=C\[C@H](C)[C@H](O)[C@@H](C)[C@@H](O)[C@@H](C)[C@H](OC(C)=O)[C@@H]1C` ?
Result: 77.4 µg/mL

These data points were gathered from patent US20260076955A1.
